measured_on: DNA gyrase (Staphylococcus aureus, UniProt P0A0K8+P20831)
Sequence (P0A0K8 whole entry): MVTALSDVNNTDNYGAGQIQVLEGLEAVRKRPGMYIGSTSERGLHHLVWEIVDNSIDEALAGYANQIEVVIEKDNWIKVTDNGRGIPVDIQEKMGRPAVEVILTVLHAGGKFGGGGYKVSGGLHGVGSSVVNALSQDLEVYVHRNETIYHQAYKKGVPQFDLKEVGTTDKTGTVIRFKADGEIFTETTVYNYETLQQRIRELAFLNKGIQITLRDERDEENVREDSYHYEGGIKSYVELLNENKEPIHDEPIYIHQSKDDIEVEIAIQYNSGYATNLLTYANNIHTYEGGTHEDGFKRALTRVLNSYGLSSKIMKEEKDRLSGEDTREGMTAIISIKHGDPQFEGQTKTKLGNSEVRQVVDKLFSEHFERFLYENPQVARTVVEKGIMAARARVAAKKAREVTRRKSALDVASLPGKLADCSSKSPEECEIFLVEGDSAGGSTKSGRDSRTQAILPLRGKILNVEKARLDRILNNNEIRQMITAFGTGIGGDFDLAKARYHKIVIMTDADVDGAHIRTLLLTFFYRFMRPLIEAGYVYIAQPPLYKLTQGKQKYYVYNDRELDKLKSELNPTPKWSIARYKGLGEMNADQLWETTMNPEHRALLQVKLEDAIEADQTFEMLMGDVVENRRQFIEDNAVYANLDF
Sequence (P20831 whole entry): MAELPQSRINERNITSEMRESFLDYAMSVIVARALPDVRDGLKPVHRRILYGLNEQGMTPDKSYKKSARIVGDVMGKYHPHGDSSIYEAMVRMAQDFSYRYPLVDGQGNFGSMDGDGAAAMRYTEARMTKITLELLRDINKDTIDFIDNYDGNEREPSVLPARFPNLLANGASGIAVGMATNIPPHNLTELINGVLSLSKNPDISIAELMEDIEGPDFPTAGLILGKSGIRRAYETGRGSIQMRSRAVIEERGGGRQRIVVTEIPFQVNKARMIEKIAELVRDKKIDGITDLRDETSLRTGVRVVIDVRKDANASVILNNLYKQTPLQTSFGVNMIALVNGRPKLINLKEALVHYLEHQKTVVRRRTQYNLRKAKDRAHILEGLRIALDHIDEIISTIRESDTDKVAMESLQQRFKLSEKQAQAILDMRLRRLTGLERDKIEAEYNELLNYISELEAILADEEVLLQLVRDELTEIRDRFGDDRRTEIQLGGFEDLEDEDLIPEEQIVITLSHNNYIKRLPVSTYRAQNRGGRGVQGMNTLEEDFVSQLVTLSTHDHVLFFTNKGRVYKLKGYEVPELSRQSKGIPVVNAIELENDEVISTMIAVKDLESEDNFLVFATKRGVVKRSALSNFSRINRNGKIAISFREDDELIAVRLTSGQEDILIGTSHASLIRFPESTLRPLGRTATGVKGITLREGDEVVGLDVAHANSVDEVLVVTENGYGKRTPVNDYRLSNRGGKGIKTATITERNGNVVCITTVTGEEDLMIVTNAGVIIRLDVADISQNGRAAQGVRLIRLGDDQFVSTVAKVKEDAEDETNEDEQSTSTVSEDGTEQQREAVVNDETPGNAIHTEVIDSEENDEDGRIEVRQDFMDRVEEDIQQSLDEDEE
protocol: Inhibition of Staphylococcus aureus DNA gyrase incubated for 30 mins by fluorescence based analysis
Type: protein-complex assay
value_type: IC50

[[record]]
smi = "O=S(=O)(c1ccc2nc3s/c(=N/N=C\\c4cccs4)n(-c4ccc(Cl)cc4)c3nc2c1)N1CCOCC1"
measured_on = "DNA gyrase (Staphylococcus aureus, UniProt P0A0K8+P20831)"
value_type = "IC50"
obs_value = "10.4 µM"


---

measured_on: DNA gyrase (Staphylococcus aureus, UniProt P0A0K8+P20831)
protocol: Inhibition of Staphylococcus aureus DNA gyrase
Type: protein-complex assay
value_type: IC50

[[record]]
smi = "COC(=O)CC(=O)Nc1nc2c(s1)C[C@@H](NC(=O)c1[nH]c(C)c(Br)c1Cl)CC2"
value_type = "IC50"
obs_value = "3.7 µM"

